# reported Ki; entries follow
- subject of test: Neuronal acetylcholine receptor; alpha4/beta2 (Homo sapiens, UniProt P17787+P43681)
- Sequence (P17787 whole entry): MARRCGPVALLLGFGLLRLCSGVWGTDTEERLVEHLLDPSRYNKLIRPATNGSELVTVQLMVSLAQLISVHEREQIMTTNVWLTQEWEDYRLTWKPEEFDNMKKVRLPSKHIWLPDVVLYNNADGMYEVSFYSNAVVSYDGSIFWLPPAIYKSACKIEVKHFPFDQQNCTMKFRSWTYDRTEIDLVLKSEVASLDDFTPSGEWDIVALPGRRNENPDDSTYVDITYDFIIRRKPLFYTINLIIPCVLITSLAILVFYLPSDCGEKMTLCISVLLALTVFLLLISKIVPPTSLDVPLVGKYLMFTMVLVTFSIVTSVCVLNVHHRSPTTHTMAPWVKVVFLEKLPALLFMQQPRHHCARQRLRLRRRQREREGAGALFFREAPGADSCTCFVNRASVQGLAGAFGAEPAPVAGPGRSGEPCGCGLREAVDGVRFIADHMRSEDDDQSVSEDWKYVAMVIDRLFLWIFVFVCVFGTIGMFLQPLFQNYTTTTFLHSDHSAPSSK
- Sequence (P43681 whole entry): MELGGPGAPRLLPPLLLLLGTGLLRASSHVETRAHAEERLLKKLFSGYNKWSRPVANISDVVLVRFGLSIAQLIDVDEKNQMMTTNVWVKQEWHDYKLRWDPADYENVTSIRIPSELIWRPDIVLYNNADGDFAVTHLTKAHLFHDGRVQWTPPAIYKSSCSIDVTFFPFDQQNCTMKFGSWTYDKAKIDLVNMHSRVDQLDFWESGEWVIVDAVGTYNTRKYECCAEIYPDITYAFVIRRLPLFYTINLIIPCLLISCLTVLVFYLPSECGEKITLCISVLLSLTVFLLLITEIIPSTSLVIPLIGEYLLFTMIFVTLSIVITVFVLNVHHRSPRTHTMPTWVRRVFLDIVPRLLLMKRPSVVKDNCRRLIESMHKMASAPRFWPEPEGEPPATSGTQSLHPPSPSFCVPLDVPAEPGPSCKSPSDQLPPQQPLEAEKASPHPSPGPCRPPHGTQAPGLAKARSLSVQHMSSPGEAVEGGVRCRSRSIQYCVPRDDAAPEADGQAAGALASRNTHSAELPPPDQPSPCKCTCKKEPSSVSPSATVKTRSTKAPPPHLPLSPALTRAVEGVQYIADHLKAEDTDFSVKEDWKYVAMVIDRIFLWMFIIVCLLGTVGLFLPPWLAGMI
- protocol: Displacement of [3H]cytisine from alpha4beta2 nAChR expressed in human recombinant SH-SY5Y cell membranes after 120 mins
Just the number please, in nM, no unit attached.

Worked examples, 2 molecules total:
{"molecule": "c1cncc(COC2CCCNC2)c1 (stereo not drawn)", "endpoint": "Ki", "endpoint value": 1.6}
{"molecule": "C[N+](C)(C)CCc1ccc2c(c1)OCC2", "endpoint": "Ki", "endpoint value": 9700}

Okay, next one:
For c1cncc(COCC2CCNC2)c1 (stereo not drawn) the molecule record lists Ki as 200

====

Here the recorded Ki is given for each entry.
- subject of test: Muscarinic acetylcholine receptor M2 (Homo sapiens, UniProt P08172)
- Sequence (P08172 whole entry): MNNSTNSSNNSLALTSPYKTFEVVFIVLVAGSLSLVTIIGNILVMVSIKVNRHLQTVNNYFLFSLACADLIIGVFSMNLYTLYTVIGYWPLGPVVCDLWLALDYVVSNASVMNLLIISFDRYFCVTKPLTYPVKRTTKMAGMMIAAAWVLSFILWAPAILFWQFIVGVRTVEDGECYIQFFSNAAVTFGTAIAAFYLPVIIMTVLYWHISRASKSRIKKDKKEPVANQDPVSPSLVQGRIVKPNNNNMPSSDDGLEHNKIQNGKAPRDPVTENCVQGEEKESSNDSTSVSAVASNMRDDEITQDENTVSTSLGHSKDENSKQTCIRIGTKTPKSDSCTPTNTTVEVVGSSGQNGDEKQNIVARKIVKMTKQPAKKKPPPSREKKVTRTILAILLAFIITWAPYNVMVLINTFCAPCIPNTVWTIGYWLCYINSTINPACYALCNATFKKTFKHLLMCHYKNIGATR
- protocol: Displacement of [3H]N-methyl-scopolamine from human recombinant muscarinic M2 receptor expressed in CHO-FlpIn cells after 6 hrs by liquid scintillation counting method
- Assay type: cell-based
- condition details: read-out: Ki(app)
Numbers only here, please. The scale is µM.

Here C[N+](C)(C)CCc1ccc2c(c1)OCC2 was tested on Muscarinic acetylcholine receptor M2 (Homo sapiens, UniProt P08172), and its Ki came to 2

Lab entry: Muscarinic acetylcholine receptor M2 (Homo sapiens, UniProt P08172) assay, molecule COc1cccc(CC[N+](C)(C)C)c1 , Ki = 9.1

====

- subject of test: Muscarinic acetylcholine receptor M2 (Homo sapiens, UniProt P08172)
- protocol: Agonist activity at human recombinant muscarinic M2 receptor co-expressed with Galphaqi5-HA in African green monkey COS7 cells assessed as IP accumulation after 2 hrs in presence of myo-[3H]inositol by liquid scintillation counting method
- Format: functional
Below, each of the compounds is paired with its reported EC50 value.
Give just the number in µM; leave the unit off.

Example cases with answers are listed next.
{"compound": "COc1ccccc1C[N+](C)(C)C", "subject of test": "Muscarinic acetylcholine receptor M2 (Homo sapiens, UniProt P08172)", "value units": "µM", "endpoint value": 18}
{"compound": "C[N+](C)(C)C1CCc2ccc3ccoc3c2C1 (configuration not stated)", "subject of test": "Muscarinic acetylcholine receptor M2 (Homo sapiens, UniProt P08172)", "value units": "µM", "endpoint value": 2.3}
{"compound": "C[N+]1(C)CCC(OCc2nccs2)C1 (configuration not stated)", "subject of test": "Muscarinic acetylcholine receptor M2 (Homo sapiens, UniProt P08172)", "value units": "µM", "endpoint value": 10}

# lookup: C[N+](C)(C)CCc1ccc2c(c1)OCC2 on Muscarinic acetylcholine receptor M2 (Homo sapiens, UniProt P08172), EC50 = 21

EC50 of c1cncc(COCC2CCNC2)c1 (configuration not stated) , assay on Muscarinic acetylcholine receptor M2 (Homo sapiens, UniProt P08172), is 29

Summary: C[N+](C)(C)CCc1cccc(O)c1 , Muscarinic acetylcholine receptor M2 (Homo sapiens, UniProt P08172), EC50 = 10

Considering CN1CCCC(OCc2cccnc2)C1 (configuration not stated) , its EC50 with Muscarinic acetylcholine receptor M2 (Homo sapiens, UniProt P08172) was recorded as 50

Per the reported Muscarinic acetylcholine receptor M2 (Homo sapiens, UniProt P08172) data, C[N+](C)(C)CCCc1ccc2ccoc2c1 has EC50 of 0.027

Measured on Muscarinic acetylcholine receptor M2 (Homo sapiens, UniProt P08172), C[N+](C)(C)CCc1ccc2ccoc2c1 has a documented EC50 of 0.22

COc1ccc(F)c(CC[N+](C)(C)C)c1 tested on Muscarinic acetylcholine receptor M2 (Homo sapiens, UniProt P08172) gave EC50: 23

Form field EC50 for item c1cncc(COC2CCCNC2)c1 (configuration not stated) on Muscarinic acetylcholine receptor M2 (Homo sapiens, UniProt P08172): 13

Sample c1csc(COC2CCNC2)n1 (configuration not stated) , system: Muscarinic acetylcholine receptor M2 (Homo sapiens, UniProt P08172). Its EC50 is 9.9

The compound COc1ccccc1CC[N+](C)(C)C , tested on Muscarinic acetylcholine receptor M2 (Homo sapiens, UniProt P08172), showed EC50 of 9.1

Item: CNCCc1cccc(OC)c1 | System: Muscarinic acetylcholine receptor M2 (Homo sapiens, UniProt P08172) | EC50: 8.2

# C[N+](C)(C)CC#CCOC1=NOCC1 with Muscarinic acetylcholine receptor M2 (Homo sapiens, UniProt P08172): EC50 is 0.00028

Lab entry: Muscarinic acetylcholine receptor M2 (Homo sapiens, UniProt P08172) assay, compound COc1cccc(CC[N+](C)(C)C)c1 , EC50 = 12
